Some binders, each annotated with its measured phage binding ELISA signal.
target: T1, PSMA Fab
T1 construct: Biotinylated and captured on neutravidin plates in the phage ELISA; also called anti-PSMA Fab; 006 PSMA Fab
test.summary: clonal phage ELISA on biotinylated PSMA Fab captured on neutravidin plates, anti-M13-HRP detection, no PSMA antigen
Where no end group is shown, it is not given here.

See these solved cases before continuing.
binder | phage binding ELISA signal
VLKMCEPLWMCVGF [Phage-2894] | 2.35
PSHYCVPAWMCAGF (cysteine pairing not given here; also: peptide displayed as fusion to phage pIII) [Phage-2905] | 2.33
ETPFCIPQWMCDGF [Phage-2892] | 2.35
HDKLCRPAWMCNGF [Phage-2897] | 2.35
VTPACVPTWMCYGF [Phage-2903] | 2.34

// next item, phage binding ELISA signal requested
For the binder VFPACVPNWMCVGF [Phage-2904] , report phage binding ELISA signal.
2.33

meta.source: patent US20260242478A1
